B1: TNXB (parent)
chain: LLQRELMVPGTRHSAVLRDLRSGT

Variants of: B1
TEST_METHOD_NOTES: protein stability index of a GFP-peptide fusion (GPS, HEK-293T) (PSI 1-6); higher = more stable;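 also: lentivirally expressed fusions sorted by FACS into six bins by GFP to DsRed ratio, PSI derived from sequencing read proportions per bin multiplied by bin number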
CONDITION_SET: c terminus: a fixed tail appended
REPORTED_PROPERTY: protein stability index
I only need the number, thanks.

Solved cases (10 shown):
MUTATION_NOTATION	protein stability index
V8I	1.99
L1K	2.87
M7C	2.54
Q3H	2.49
R12Y	2.45
V16L	2.33
L17W	2.38
R21L	1.99
Q3G	2.74
S22F	1.58

Record request: protein stability index value, item Q3L 1.73

What protein stability index value was documented for this variant, H13V ? 2.1

# query: protein stability index of entry L6Q 2.69

GET /values?readout=protein stability index&item= S22Q 3.04

Give the measured protein stability index of D19P . 2.69

What does the data say about its protein stability index? Entry: P9Q 2.1
